Ref: patent US20220265842A1

TEST_SYSTEM: human CD40 on LPS-stimulated human monocyte-derived dendritic cells (human, UniProt P25942 21-277)
Sequence (P25942 21-277 limits assumed): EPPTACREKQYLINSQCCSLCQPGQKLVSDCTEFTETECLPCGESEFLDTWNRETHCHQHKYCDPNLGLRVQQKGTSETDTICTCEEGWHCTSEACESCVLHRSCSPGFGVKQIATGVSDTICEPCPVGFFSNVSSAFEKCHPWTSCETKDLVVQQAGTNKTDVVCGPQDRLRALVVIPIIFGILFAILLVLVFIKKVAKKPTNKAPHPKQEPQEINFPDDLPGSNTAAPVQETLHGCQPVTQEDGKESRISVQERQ
ASSAY_METHOD_TEXT: cell-based or functional assay
Max Inhibition (%) reference
Answer format: numeric, % implied, no suffix.

- BINDER: "Example 28-conjugated (human), n=4 (antibody, human IgG1, kappa, L234A L235A, DAR 4, V domains shown, glucocorticoid drug-linker of Precursor Example 28 (bromoacetamide) on cysteine thiols of reduced interchain disulfides; n=4 per antibody; positions not given) VH: EVQLVESGGGLVKPGGSLRLSCAASGFTFSDYGMNWVRQAPGKGLEWIAYISSGRGNIYYADTVKGRFTISRDNAKNSLYLQMNSLRAEDTAVYYCARSWGYFDVWGQGTTVTVSS VL: DIVMTQSPDSLAVSLGERATINCKSSQSLLNRGNQKNYLTWFQQKPGQPPKLLIYWASTRESGVPDRFSGSGSGTDFTLTISSLQAEDVAVYYCQNDYTYPLTFGQGTKLEIKR"
  ENDPOINT_NAME: "Max Inhibition (%)"
  UNIT_LABEL: "%"
  EXPERIMENTAL_RESULT: 87.6

Q: Param item = Human anti-CD40 antibody Ab102 (antibody, human IgG1, kappa, L234A L235A, V domains shown) VH: EVQLVESGGGLVKPGGSLRLSCAASGFTFSDYGMNWVRQAPGKGLEWIAYISSGRGNIYYADTVKGRFTISRDNAKNSLYLQMNSLRAEDTAVYYCARSWGYFDVWGQGTTVTVSS VL: DIVMTQSPDSLAVSLGERATINCKSSQSLLNRGNQKNYLTWFQQKPGQPPKLLIYWASTRESGVPDRFSGSGSGTDFTLTISSLQAEDVAVYYCQNDYTYPLTFGQGTKLEIKR ; retrieve measured Max Inhibition (%).
Ans: 44.5

Q: Param item = Example 28-conjugated (human), n=2 (antibody, human IgG1, kappa, L234A L235A, DAR 2, V domains shown, glucocorticoid drug-linker of Precursor Example 28 (bromoacetamide) on cysteine thiols of reduced interchain disulfides; n=2 per antibody; positions not given) VH: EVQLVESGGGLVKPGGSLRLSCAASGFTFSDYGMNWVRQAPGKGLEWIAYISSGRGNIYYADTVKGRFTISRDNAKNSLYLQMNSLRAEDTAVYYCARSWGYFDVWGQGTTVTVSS VL: DIVMTQSPDSLAVSLGERATINCKSSQSLLNRGNQKNYLTWFQQKPGQPPKLLIYWASTRESGVPDRFSGSGSGTDFTLTISSLQAEDVAVYYCQNDYTYPLTFGQGTKLEIKR ; retrieve measured Max Inhibition (%).
Ans: 81.8

Q: Param item = Example 13-hydrolyzed (human), n=4 (antibody, human IgG1, kappa, L234A L235A, V domains shown, glucocorticoid drug-linker of Precursor Example 13 (maleimide, thiosuccinimide ring hydrolyzed) on cysteine thiols of reduced disulfides; n=4 per antibody; positions not given) VH: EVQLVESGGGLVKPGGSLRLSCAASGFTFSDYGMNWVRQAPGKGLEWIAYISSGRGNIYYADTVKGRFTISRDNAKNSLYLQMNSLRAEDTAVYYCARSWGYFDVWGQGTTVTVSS VL: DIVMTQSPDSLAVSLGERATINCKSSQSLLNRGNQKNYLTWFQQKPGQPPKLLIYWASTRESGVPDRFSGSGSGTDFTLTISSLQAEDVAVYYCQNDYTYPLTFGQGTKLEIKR ; retrieve measured Max Inhibition (%).
Ans: 83.3

Q: Param item = Example 12-hydrolyzed (human), n=4 (antibody, human IgG1, kappa, L234A L235A, V domains shown, glucocorticoid drug-linker of Precursor Example 12 (maleimide, thiosuccinimide ring hydrolyzed) on cysteine thiols of reduced disulfides; n=4 per antibody; positions not given) VH: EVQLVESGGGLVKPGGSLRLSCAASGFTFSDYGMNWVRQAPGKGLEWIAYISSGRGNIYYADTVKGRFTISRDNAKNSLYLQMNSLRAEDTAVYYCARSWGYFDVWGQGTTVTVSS VL: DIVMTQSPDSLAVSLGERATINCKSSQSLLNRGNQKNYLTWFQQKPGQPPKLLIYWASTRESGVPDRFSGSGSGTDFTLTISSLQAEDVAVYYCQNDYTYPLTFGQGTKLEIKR ; retrieve measured Max Inhibition (%).
Ans: 99.5
